biological target: human full-length recombinant PKC βII (Homo sapiens); construct: Active human full-length recombinant PKC βII; purchased Invitrogen GmbH, Darmstadt, Germany; experiment: Determination of PKC βII inhibition (Caliper mobility shift kinase assay); format: biochemical; conditions: final compound concentration 1.14 μM (±0.15 μM); 60 min incubation at 32° C.
Sequence (P05771 1-673 isoform P05771-2): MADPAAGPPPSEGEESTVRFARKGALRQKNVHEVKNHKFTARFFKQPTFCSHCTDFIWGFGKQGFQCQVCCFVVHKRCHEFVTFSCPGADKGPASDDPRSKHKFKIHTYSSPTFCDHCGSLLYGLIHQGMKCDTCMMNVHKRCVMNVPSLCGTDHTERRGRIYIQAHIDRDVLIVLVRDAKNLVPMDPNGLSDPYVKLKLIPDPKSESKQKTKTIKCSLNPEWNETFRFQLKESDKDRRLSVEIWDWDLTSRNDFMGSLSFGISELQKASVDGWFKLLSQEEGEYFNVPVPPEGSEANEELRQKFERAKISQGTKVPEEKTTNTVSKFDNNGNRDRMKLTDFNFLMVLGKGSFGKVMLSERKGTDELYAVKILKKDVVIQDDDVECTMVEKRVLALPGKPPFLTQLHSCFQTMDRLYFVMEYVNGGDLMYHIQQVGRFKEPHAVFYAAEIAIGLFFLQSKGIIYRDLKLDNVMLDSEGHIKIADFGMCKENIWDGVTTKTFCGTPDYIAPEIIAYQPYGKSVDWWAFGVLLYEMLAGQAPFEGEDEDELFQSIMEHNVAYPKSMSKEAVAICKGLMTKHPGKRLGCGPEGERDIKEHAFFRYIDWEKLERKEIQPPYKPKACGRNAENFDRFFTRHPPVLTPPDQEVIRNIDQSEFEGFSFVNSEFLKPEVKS
measured.parameter: inhibition at 1.14 µM (%)

{"columns": ["compound", "target.or.test.system", "inhibition at 1.14 µM, %"],
 "data": [
  ["CCc1n[nH]c2nc(-c3ccc(O)cc3)cc(CN3CCNCC3)c12 [Example 96]", "human full-length recombinant PKC βII (Homo sapiens)", 74],
  ["Cc1n[nH]c2nc(-c3ccc(O)cc3F)cc(CN3CC(C)(C4CC4)NCC3(C)C)c12 (centres unmarked) [Example 23]", "human full-length recombinant PKC βII (Homo sapiens)", 99],
  ["Cc1n[nH]c2nc(-c3ccc(O)cc3F)cc(CN3C[C@@H](C)NC[C@@H]3C)c12 [Example 27]", "human full-length recombinant PKC βII (Homo sapiens)", 83],
  ["Cc1n[nH]c2nc(-c3ccc(O)cc3F)cc(CN3CC(C)(C)NC[C@@H]3C)c12 [Example 124]", "human full-length recombinant PKC βII (Homo sapiens)", 83],
  ["Cc1n[nH]c2nc(-c3ccc(O)cc3F)cc(CN3CC(C)(C)N(CCO)CC3(C)C)c12 [Example 72]", "human full-length recombinant PKC βII (Homo sapiens)", 100],
  ["CCNC(=O)N1CC(C)(C)N(Cc2cc(-c3ccc(O)cc3)nc3[nH]nc(C)c23)CC1(C)C [Example 88]", "human full-length recombinant PKC βII (Homo sapiens)", 89],
  ["Cc1n[nH]c2nc(-c3ccc(O)cc3F)cc(CN3CCNC[C@H]3C(F)(F)F)c12 [Example 108]", "human full-length recombinant PKC βII (Homo sapiens)", 102],
  ["Cc1n[nH]c2nc(-c3ccc(O)cc3)cc(CN3CC4(CCCC4)NCC3C)c12 (centres unmarked) [Example 33]", "human full-length recombinant PKC βII (Homo sapiens)", 93],
  ["Cc1n[nH]c2nc(-c3ccc(O)cc3F)cc(CN3CCNCC3)c12 [Example 13]", "human full-length recombinant PKC βII (Homo sapiens)", 81],
  ["COCCN1CC(C)(C)N(Cc2cc(-c3ccc(O)cc3)nc3[nH]nc(C)c23)CC1C (centres unmarked) [Example 63]", "human full-length recombinant PKC βII (Homo sapiens)", 97],
  ["Cc1n[nH]c2nc(-c3ccc(O)cc3F)cc(CN3CCNC[C@@H]3c3ccc(F)cc3)c12 [Example 105]", "human full-length recombinant PKC βII (Homo sapiens)", 100],
  ["Cc1n[nH]c2nc(-c3ccc(O)cc3F)cc(CN3CC(C)NCC3(C)C)c12 (centres unmarked) [Example 11]", "human full-length recombinant PKC βII (Homo sapiens)", 104],
  ["Cc1n[nH]c2nc(-c3ccc(O)cc3F)cc(CN3CCC[C@](C)(N)C3)c12 [Example 147]", "human full-length recombinant PKC βII (Homo sapiens)", 100],
  ["Cc1n[nH]c2nc(-c3ccc(O)cc3F)cc(CN3CCNCC3c3cccc(C(F)(F)F)c3)c12 (centres unmarked) [Example 8]", "human full-length recombinant PKC βII (Homo sapiens)", 92],
  ["CC[C@H]1CNC(C)(C)CN1Cc1cc(-c2ccc(O)cc2)nc2[nH]nc(C)c12 [Example 145]", "human full-length recombinant PKC βII (Homo sapiens)", 95],
  ["CCC1(C)CN(Cc2cc(-c3ccc(O)cc3F)nc3[nH]nc(C)c23)C(C)(C)CN1 (centres unmarked) [Example 21]", "human full-length recombinant PKC βII (Homo sapiens)", 93],
  ["Cc1n[nH]c2nc(-c3ccc(O)cc3F)cc(CN3C[C@H](C)NC[C@H]3C(F)(F)F)c12 [Example 154]", "human full-length recombinant PKC βII (Homo sapiens)", 92],
  ["Cc1n[nH]c2nc(-c3ccc(O)cc3)cc(CN3CCNCC3c3ccccc3)c12 (centres unmarked) [Example 41]", "human full-length recombinant PKC βII (Homo sapiens)", 93],
  ["CC[C@@H]1CNC(C)(C)CN1Cc1cc(-c2ccc(O)cc2F)nc2[nH]nc(C)c12 [Example 144]", "human full-length recombinant PKC βII (Homo sapiens)", 98],
  ["Cc1n[nH]c2nc(-c3ccc(O)cc3F)cc(CN3C[C@H](C)NC[C@@H]3C(F)(F)F)c12 [Example 151]", "human full-length recombinant PKC βII (Homo sapiens)", 90]
]}
